Target or test system: UniProtKB Q15858
Test protocol: in-vitro Nav 1.7 PX data
Format: cell-based
Measurement parameters: in-vitro PX (PatchXpress) data
Endpoint: IC50 (nM)

INSERT INTO assay_data (compound, quantitative_result) VALUES
  ('COc1cc(Oc2cc(C)cc(F)c2)ccc1-c1nccc2cc(S(=O)(=O)Nc3ccncn3)ccc12', 77),
  ('COc1cc(Oc2cc(F)ccc2F)ccc1-c1nccc2cc(S(=O)(=O)Nc3nncs3)ccc12', 99.4),
  ('COc1cc(-c2ccc(F)cc2)c(C#N)cc1-c1nccc2cc(S(=O)(=O)Nc3ccncn3)ccc12', 150);

###

Target or test system: Nav 1.7 (Homo sapiens (Human))
Sequence (Q15858 whole entry): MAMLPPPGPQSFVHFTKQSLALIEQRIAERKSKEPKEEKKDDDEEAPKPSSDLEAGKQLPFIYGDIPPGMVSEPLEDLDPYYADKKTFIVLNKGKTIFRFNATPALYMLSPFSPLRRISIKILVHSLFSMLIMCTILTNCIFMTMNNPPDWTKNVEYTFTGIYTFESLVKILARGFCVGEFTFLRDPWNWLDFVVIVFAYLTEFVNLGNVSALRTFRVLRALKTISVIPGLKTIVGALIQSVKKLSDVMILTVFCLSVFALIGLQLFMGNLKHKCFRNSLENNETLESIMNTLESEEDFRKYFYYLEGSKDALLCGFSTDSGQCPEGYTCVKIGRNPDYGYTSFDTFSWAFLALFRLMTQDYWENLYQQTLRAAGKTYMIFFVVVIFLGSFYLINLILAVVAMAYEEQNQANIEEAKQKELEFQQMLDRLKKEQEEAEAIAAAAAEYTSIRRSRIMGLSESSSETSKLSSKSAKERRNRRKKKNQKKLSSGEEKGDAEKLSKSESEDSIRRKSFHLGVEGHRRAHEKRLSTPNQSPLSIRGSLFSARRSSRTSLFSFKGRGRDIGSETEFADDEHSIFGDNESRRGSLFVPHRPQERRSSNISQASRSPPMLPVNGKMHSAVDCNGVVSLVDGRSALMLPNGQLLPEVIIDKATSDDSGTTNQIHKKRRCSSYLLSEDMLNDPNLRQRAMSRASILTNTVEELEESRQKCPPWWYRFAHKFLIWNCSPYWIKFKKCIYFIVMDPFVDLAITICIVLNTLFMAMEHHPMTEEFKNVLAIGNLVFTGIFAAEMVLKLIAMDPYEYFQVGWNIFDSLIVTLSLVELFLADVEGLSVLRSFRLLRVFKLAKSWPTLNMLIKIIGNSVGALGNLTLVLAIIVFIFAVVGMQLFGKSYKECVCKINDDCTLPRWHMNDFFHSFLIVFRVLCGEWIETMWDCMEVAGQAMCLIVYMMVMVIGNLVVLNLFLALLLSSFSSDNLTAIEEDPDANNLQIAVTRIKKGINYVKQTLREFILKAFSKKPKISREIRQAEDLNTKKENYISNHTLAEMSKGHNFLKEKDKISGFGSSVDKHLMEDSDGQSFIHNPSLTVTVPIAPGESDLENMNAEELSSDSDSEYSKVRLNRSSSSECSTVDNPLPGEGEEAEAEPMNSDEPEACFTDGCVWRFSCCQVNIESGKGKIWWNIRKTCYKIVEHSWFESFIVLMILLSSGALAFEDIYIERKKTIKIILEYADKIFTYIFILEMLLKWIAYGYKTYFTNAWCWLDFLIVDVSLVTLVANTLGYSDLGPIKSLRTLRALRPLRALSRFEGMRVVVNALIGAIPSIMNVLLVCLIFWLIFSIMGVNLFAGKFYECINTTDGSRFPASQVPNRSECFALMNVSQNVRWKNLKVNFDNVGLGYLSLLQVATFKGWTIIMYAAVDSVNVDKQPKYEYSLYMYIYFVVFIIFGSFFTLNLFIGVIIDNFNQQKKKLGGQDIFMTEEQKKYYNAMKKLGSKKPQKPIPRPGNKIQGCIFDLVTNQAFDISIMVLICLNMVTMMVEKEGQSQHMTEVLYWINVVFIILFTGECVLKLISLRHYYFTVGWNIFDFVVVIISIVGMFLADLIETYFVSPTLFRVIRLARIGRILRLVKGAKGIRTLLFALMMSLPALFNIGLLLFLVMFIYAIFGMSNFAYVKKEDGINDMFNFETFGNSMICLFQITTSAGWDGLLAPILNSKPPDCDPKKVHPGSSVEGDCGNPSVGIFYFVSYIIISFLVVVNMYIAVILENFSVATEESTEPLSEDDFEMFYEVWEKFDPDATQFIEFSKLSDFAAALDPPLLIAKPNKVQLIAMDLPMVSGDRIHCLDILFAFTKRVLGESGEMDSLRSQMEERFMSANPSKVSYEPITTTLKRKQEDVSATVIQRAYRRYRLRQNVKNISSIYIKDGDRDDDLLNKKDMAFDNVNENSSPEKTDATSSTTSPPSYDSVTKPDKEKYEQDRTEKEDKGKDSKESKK
Test protocol: Nav 1.7 in vitro PX assay (PatchXpress whole cell voltage clamp);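 note: holding potential set for 20 to 50% inactivation, sodium current evoked by a 20 ms step to −10 mV, peak current inhibition read after compound exposure, 3–5 cells per concentration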
Type: cell-based
Measurement parameters: PatchXpress (PX)
Reported IC50 by item:
Endpoint: IC50

INSERT INTO assay_data (compound, target_or_test_system, result) VALUES
  ('COc1cc(-c2ccc(Cl)c(C)c2)c(Cl)cc1-c1nncc2cc(S(=O)(=O)Nc3ccon3)ccc12 [Example 245]', 'Nav 1.7 (Homo sapiens (Human))', '15.4 nM'),
  ('COc1cc(-c2ccc(Cl)c(C)c2)c(C)cc1-c1ncnc2cc(S(=O)(=O)Nc3ccon3)ccc12 [Example 252]', 'Nav 1.7 (Homo sapiens (Human))', '32 nM'),
  ('COc1cc(-c2cc(F)cc(F)c2)c(C)cc1-c1nccc2cc(S(=O)(=O)Nc3ccon3)ccc12 [Example 272]', 'Nav 1.7 (Homo sapiens (Human))', '31.9 nM'),
  ('COc1cc(C(F)F)c(C)cc1-c1nccc2cc(S(=O)(=O)Nc3ccon3)ccc12 [Example 250]', 'Nav 1.7 (Homo sapiens (Human))', '728 nM'),
  ('COc1cc(-c2cccc(F)c2)ccc1[C@@H]1c2ccc(S(=O)(=O)Nc3ccon3)cc2CCN1C(C)=O [Example 53-A]', 'Nav 1.7 (Homo sapiens (Human))', '1090 nM'),
  ('COc1cc(-c2cc(C)cc(Cl)c2)c(C)cc1-c1ncnc2cc(S(=O)(=O)Nc3ccon3)ccc12 [Example 268]', 'Nav 1.7 (Homo sapiens (Human))', '23.9 nM'),
  ('COc1cc(Cl)c(C)cc1-c1ncnc2cc(S(=O)(=O)Nc3ccon3)ccc12 [Example 247]', 'Nav 1.7 (Homo sapiens (Human))', '243 nM'),
  ('COc1cc(-c2ccc(C)c(Cl)c2)c(Cl)cc1-c1nncc2cc(S(=O)(=O)Nc3ccon3)ccc12 [Example 246]', 'Nav 1.7 (Homo sapiens (Human))', '17.2 nM'),
  ('COc1cn(-c2cc(F)cc(F)c2)c(=O)cc1-c1nccc2cc(S(=O)(=O)Nc3ccon3)ccc12 [Example 56]', 'Nav 1.7 (Homo sapiens (Human))', '11800 nM');
